Values compiled from paper PMC9317327.

Tested on: Vibrio parahaemolyticus 2013V-1174
Assay type: cell-based
Conditions: 2 h, pH 7.2
Where a SMILES comes first, the peptide text is derived from it.
MIC: recorded values
value-type: MIC

compound="CC[C@H](C)[C@H](NC(=O)CNC(=O)[C@H](Cc1c[nH]cn1)NC(=O)[C@H](CCCNC(=N)N)NC(=O)[C@H](CC(C)C)NC(=O)[C@H](Cc1ccccc1)NC(=O)CNC(=O)[C@H](C)NC(=O)[C@H](CCCNC(=N)N)NC(=O)[C@@H](NC(=O)[C@@H](N)CCCNC(=N)N)C(C)C)C(=O)N[C@@H](CCCCN)C(=O)N[C@@H](CCCNC(=N)N)C(=O)N[C@@H](CO)C(=O)N[C@@H](CCCNC(=N)N)C(=O)O [NpHM7] (H-RVRAGFLRHGIKRSR-OH)" test_system="Vibrio parahaemolyticus 2013V-1174" value_type=MIC observed_measurement=">150 µM"
compound="CC[C@H](C)[C@H](NC(=O)CNC(=O)[C@H](Cc1c[nH]cn1)NC(=O)[C@H](CCCNC(=N)N)NC(=O)[C@H](CC(C)C)NC(=O)[C@H](Cc1ccccc1)NC(=O)CNC(=O)[C@H](C)NC(=O)[C@H](Cc1ccccc1)NC(=O)[C@@H](NC(=O)[C@@H](N)CCCNC(=N)N)C(C)C)C(=O)N[C@@H](CCCCN)C(=O)N[C@@H](CCCNC(=N)N)C(=O)N[C@@H](CO)C(=O)N[C@@H](C)C(=O)O [NpHM1] (H-RVFAGFLRHGIKRSA-OH)" test_system="Vibrio parahaemolyticus 2013V-1174" value_type=MIC observed_measurement="15 to 60 µM"
compound="CC[C@H](C)[C@H](NC(=O)CNC(=O)[C@H](Cc1c[nH]cn1)NC(=O)[C@H](CC(C)C)NC(=O)[C@H](CC(C)C)NC(=O)[C@H](Cc1ccccc1)NC(=O)CNC(=O)[C@H](C)NC(=O)[C@H](Cc1ccccc1)NC(=O)[C@@H](NC(=O)[C@@H](N)CCCNC(=N)N)C(C)C)C(=O)N[C@@H](CCCCN)C(=O)N[C@@H](CCCNC(=N)N)C(=O)N[C@@H](CO)C(=O)N[C@@H](CCCNC(=N)N)C(=O)O [NpHM2] (H-RVFAGFLLHGIKRSR-OH)" test_system="Vibrio parahaemolyticus 2013V-1174" value_type=MIC observed_measurement="30 to 60 µM"
